tested on: Pseudomonas aeruginosa; test: Antibacterial activity against Pseudomonas aeruginosa PAO1 measured after 20 hrs by microtiter dilution method; type: functional; conditions: PAO1, 20 h
Endpoint name: MIC (µM)
Write it as a number; the unit µM goes unstated.

# Substance, Endpoint result
data = [
    ("H-KKKKKAAFAKAWAAFAA-NH2", 25),
    ("H-KKKAAFLKLWAKLFKAL-NH2", 3.1),
    ("H-KALKKFLKAWAKLFKAL-NH2", 3.1),
]

Now for another entry.
*Q* Entry `H-KKKKAAFAKAWAKAFAA-NH2` : reported MIC = ?
*A* 50
